test system: DU-145 cells; test: Sulforhodamine B (SRB) growth inhibition assay, DU-145 cells; format: cell-based, Human; settings: human hormone-refractory prostate cancer DU-145 cells, 72 hours incubation, read-out: DU-145 cells IC50
Structures can show the parent of a compound that is named as a salt.
readout: pIC50
Worth noting: pIC50 values are minus log10 of concentrations stated in mol/L.

Request: Check the records and state pIC50 for CCCCCCCCCCCCCCCCn1cc(CC(N)(CO)CO)nn1 [Compound 2, hydrochloride]
Response: 5.28

Request: Please look at this compound and report its pIC50: CCCCCCCCCCCCCCn1cc(CCCC(N)(CO)CO)nn1 [Compound 9, hydrochloride]
Response: 5.27

Request: Using known records, supply pIC50 for CCCCCCCCCCCCCn1cc(CC(N)(CO)CO)nn1 [Compound 11, hydrochloride]
Response: 5.38

Request: For the compound CCCCCCCCCCCCCCCCCCn1cc(CCC(N)(CO)CO)nn1 [Compound 4, hydrochloride] , give its reported pIC50.
Response: 5.62

Request: # return recorded pIC50 for input CCCCCCCCCCCCCCCCCCn1cc(CC(N)(CO)CO)nn1 [Compound 3, hydrochloride]
Response: 5.24

Request: Could you please provide reported pIC50 for CCCCCCCCCCCCCCn1cc(CC(N)(CO)CO)nn1 [Compound 1, hydrochloride] ? Thanks!
Response: 5.33

Request: Give reported pIC50 value for CCCCCCCCCCCCCCCCCCCCn1cc(CC(CO)(COC)NC)nn1 (stereo not drawn) [Compound 12]
Response: 5.33

Request: Please give the documented pIC50 of CCCCCCCCCCCCCCCCCCCCn1cc(CC(N)(CO)CO)nn1 [Compound 8, hydrochloride]
Response: 5.21

###

system: DU-145 cells; assay: Sulforhodamine B (SRB) growth inhibition assay, DU-145 cells; assay type: cell-based, Human; conditions: Homo sapiens, DU-145 cells, 72 hours, bound stated, read-out: IC50 in DU-145 cells (text summary of Table 1)
Counter-ions that a name gives are not always drawn.
I'd be grateful if you could share measured IC50 for these entries.

Request: Identify measured IC50 associated with CCCCCCCCCCCCCCCCCCn1cc(CCC(N)(CO)CO)nn1 [Compound 4, hydrochloride]
Response: < 5 µM

Request: Please report IC50 for the following molecule: CCCCCCCCCCCCCCCCCCCCn1cc(CC(N)(CO)CO)nn1 [Compound 8, hydrochloride]
Response: < 10 µM

Request: Give recorded IC50. CCCCCCCCCCCCCn1cc(CC(N)(CO)CO)nn1 [Compound 11, hydrochloride]
Response: < 5 µM

Request: Note down IC50 recorded for CCCCCCCCCCCCCCn1cc(CCCC(N)(CO)CO)nn1 [Compound 9, hydrochloride]
Response: < 10 µM

Request: Provide one value: measured IC50 of CCCCCCCCCCCCCCn1cc(CC(N)(CO)CO)nn1 [Compound 1, hydrochloride]
Response: < 5 µM

Request: Please report the measured IC50 for CCCCCCCCCCCCCCCCCCCCn1cc(CC(CO)(COC)NC)nn1 (centres unmarked)
Response: < 5 µM

Request: Please supply the value of reported IC50 for the item CCCCCCCCCCCCCCCCn1cc(CC(N)(CO)CO)nn1 [Compound 2, hydrochloride]
Response: < 10 µM

Request: Give the value of IC50 reported for the following: CCCCCCCCCCCCCCCCCCn1cc(CC(N)(CO)CO)nn1 [Compound 3, hydrochloride]
Response: < 10 µM

Reference for the values: patent US9738613B2
